Consider the following sequences and their measured phosphorylation enrichment readings.
biological target: FGFR1 (UniProt P11362); assay: phosphorylation enrichment, bacterial display (enrichment ratio); higher = better substrate or ligand; peptides without Tyr show the background;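 further: 11-residue human phosphosite peptides and single-mutation variants displayed on the E. coli surface, counted by deep sequencing, each peptide's frequency after selection divided by its frequency in the unselected input library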;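 further: frequency after pTyr selection over input frequency; kinase dosed for 20-30% of maximal phosphorylation in three min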
Sequence (P11362 whole entry, looked up): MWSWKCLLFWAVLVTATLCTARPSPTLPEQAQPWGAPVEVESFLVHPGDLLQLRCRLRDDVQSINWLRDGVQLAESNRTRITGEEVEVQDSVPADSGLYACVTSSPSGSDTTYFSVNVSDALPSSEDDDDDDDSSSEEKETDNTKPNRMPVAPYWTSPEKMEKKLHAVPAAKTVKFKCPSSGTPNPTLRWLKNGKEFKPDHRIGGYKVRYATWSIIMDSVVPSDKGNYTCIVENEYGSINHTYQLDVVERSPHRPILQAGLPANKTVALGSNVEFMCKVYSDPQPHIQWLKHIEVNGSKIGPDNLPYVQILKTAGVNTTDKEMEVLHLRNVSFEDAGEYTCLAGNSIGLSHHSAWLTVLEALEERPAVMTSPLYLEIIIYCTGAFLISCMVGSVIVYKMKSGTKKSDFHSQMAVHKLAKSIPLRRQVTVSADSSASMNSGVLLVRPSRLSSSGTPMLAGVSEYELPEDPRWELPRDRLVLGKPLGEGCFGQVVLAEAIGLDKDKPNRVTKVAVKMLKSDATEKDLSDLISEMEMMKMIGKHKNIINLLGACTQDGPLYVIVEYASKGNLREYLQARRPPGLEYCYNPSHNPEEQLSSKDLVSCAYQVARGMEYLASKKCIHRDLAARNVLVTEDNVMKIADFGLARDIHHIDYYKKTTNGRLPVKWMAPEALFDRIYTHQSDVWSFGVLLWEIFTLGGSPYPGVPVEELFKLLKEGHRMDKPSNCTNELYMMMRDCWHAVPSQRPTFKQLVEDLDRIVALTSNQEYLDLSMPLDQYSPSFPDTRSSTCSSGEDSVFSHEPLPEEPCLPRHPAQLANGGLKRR
Please reply with the value in numeric form only.

Consider the worked cases shown below.
> print(dat)
                      sequence.chain  measured.value
1     EWLRRYLKNGK [HLA-C_Y195_E197K]           0.507
2  EFFENYIEELK [PARP4_Y218_F215Y_YF]           0.488
3    PSDPSYEDTRE [BMPR1A_Y467_M470T]           0.813
4         DDHFTYSRFPW [LY75_Y888_YF]           0.905
5     LKDEDYLKDTV [HAUS3_Y582_I586T]            1.88

Challenge: State the recorded phosphorylation enrichment for this entry: EVRTQYEEIAQ [KRT76_Y361_A359T]
Response given: 0.49

Challenge: Fill in the blank: the reported phosphorylation enrichment of PSAEGYQDVRD [ABLIM1_Y439] is ____.
Response given: 0.571

Challenge: Given the sequence SRLDSYVRSLP [TRAPPC1_Y133] , what is its reported phosphorylation enrichment?
Response given: 0.427

Challenge: Endpoint output: phosphorylation enrichment of HNMPIYEGFAL [ACTA1_Y168_V165M_YF] . Value?
Response given: 0.704

Challenge: Can you share its phosphorylation enrichment? I mean this sequence: ISTAGYSFPEL [EDAR_Y406_I408F]
Response given: 0.457

Challenge: # phosphorylation enrichment lookup, item YRASYYRKGGC [ALK_Y1283]
Response given: 0.514
